ASSAY_PROCEDURE: Growth inhibition of human ovarian cancer cells incubated for 48 hrs by sulforhodamine B assay
Format: functional
CONDITION_PARAMETERS: Cancer cell lines, read-out: LC50 (the source's name)
Recorded measurements of CC50, one per entry
Answer in µM, number only, no unit symbol.

Below, 2 compounds whose answers are already recorded.
{"SMILES_REPRESENTATION": "c1ccc2[nH]c(-c3ccc(Nc4nc(N5CCCCC5)nc(N5CCOCC5)n4)cc3)nc2c1", "CC50 (µM)": 26.9}
{"SMILES_REPRESENTATION": "Clc1ccc(-c2nc(Nc3ccc(-c4nc5ccccc5[nH]4)cc3)nc(N3CCOCC3)n2)cc1", "CC50 (µM)": 5.2}

// next item, CC50 requested
*Q* Which CC50 value is on record for c1ccc(-c2nc(Nc3ccc(-c4nc5ccccc5[nH]4)cc3)nc(N3CCOCC3)n2)cc1 ?
*A* 6.84

----------
// reported growth at 0.01 µM for each item listed
ASSAY_PROCEDURE: Growth inhibition of human UO31 cells assessed as cell growth at 10^-8 M incubated for 48 hrs by sulforhodamine B assay
Type: functional
CONDITION_PARAMETERS: UO-31, 48 h, read-out: Activity
// note: answer is a bare numeric in %

{"SMILES_REPRESENTATION": "c1ccc2[nH]c(-c3ccc(Nc4nc(N5CCCCC5)nc(N5CCOCC5)n4)cc3)nc2c1", "growth at 0.01 µM (%)": 85}
{"SMILES_REPRESENTATION": "c1ccc(-c2nc(Nc3ccc(-c4nc5ccccc5[nH]4)cc3)nc(N3CCOCC3)n2)cc1", "growth at 0.01 µM (%)": 82}
{"SMILES_REPRESENTATION": "Clc1ccc(-c2nc(Nc3ccc(-c4nc5ccccc5[nH]4)cc3)nc(N3CCOCC3)n2)cc1", "growth at 0.01 µM (%)": 79}

// next entry
*Q* # query: growth at 0.01 µM of entry Fc1ccc(-c2nc(Nc3ccc(-c4nc5ccccc5[nH]4)cc3)nc(N3CCOCC3)n2)cc1
*A* 88

----------
System: SK-MEL-2
ASSAY_PROCEDURE: Growth inhibition of human SK-MEL-2 cells assessed as cell growth at 10^-8 M incubated for 48 hrs by sulforhodamine B assay
Type: functional
CONDITION_PARAMETERS: SK-MEL-2, 48 h, read-out: Activity
Measured growth at 0.01 µM values are reported for all entries that follow.
Unit % implied. Number only.

*Q* Param readout = growth at 0.01 µM; param system = SK-MEL-2; param query = c1ccc(-c2nc(Nc3ccc(-c4nc5ccccc5[nH]4)cc3)nc(N3CCOCC3)n2)cc1 ; response: value
*A* 105

----------
ASSAY_PROCEDURE: Growth inhibition of human OVCAR4 cells assessed as cell growth at 10^-7 M incubated for 48 hrs by sulforhodamine B assay
Format: functional
CONDITION_PARAMETERS: OVCAR-4, 48 h, read-out: Activity
Listed next: entries and their corresponding growth at 0.1 µM.
Unit % implied. Number only.

{"SMILES_REPRESENTATION": "Clc1ccc(-c2nc(Nc3ccc(-c4nc5ccccc5[nH]4)cc3)nc(N3CCOCC3)n2)cc1", "growth at 0.1 µM, %": 98}
{"SMILES_REPRESENTATION": "c1ccc2[nH]c(-c3ccc(Nc4nc(N5CCCCC5)nc(N5CCOCC5)n4)cc3)nc2c1", "growth at 0.1 µM, %": 97}
{"SMILES_REPRESENTATION": "Fc1ccc(-c2nc(Nc3ccc(-c4nc5ccccc5[nH]4)cc3)nc(N3CCOCC3)n2)cc1", "growth at 0.1 µM, %": 104}

Now for another entry.
*Q* Can you share its growth at 0.1 µM? I mean this compound: c1ccc(-c2nc(Nc3ccc(-c4nc5ccccc5[nH]4)cc3)nc(N3CCOCC3)n2)cc1
*A* 103
